test.name: MRT in Beagle dog at 0.25 mg/kg, iv by LC-MS/MS analysis
Format: ADME, organism-based, Canis lupus familiaris
conditions.used: in vivo
Quick reference for MRT among some compounds
Write the answer as a number in h, unit excluded.

* Cc1c(Nc2ncc3cc(Cl)c(C4CCN([C@@H]5COC[C@@H]5O)CC4)cc3n2)cnn1[C@@H]1CC1(F)F | 16

[Q] Data request, read-out MRT, for "CC(C)(O)Cn1ncc(Nc2ncc3cc(Cl)c(C4CCN(C5COC5)CC4)cc3n2)c1Cl"
[A] 7.8

###

test.name: MRT in Beagle dog at 2 mg/kg, iv by LC-MS/MS analysis
Format: ADME, organism-based, Canis lupus familiaris
conditions.used: in vivo
outcome.measure: MRT

[Q] Data request, read-out MRT, for "Cc1c(Nc2ncc3cc(Cl)c(C4CCN(C5COC5)CC4)cc3n2)cnn1C1CC1"
[A] 2 h

Reference for the values: ChEMBL document CHEMBL5042510
